For each of the sequences below, state its protein stability index.
Experiment: protein stability index of a GFP-peptide fusion (yeast GPS) (PSI 1-4); higher = more stable; sorted into four equal gates, so the index is relative within each strain
Settings: ubr1∆
Give bare numbers.

# lookup: protein stability index of KDLKHIIYYKFNKNLGK [PRP8]
1.17

# lookup: protein stability index of ALTKFEASQVTEKQRKK [RPL35A]
3.17

# lookup: protein stability index of MVSHKTARGKAALERLK [RPL16B]
2.21

# lookup: protein stability index of GRTPNISNGTINIQKKL [SIR4]
2.16

# lookup: protein stability index of KQLQLAMHNSKAASSTR [POP1]
1.74

Please supply protein stability index for each of the following items, keeping them in order.
1. PLLDIVLKADRSWNEPS [YML103C/NUP188]
2. LSSDDLLGKESFKKIIK [YCS4]

1. 3.12
2. 3.57

###

Experiment: protein stability index of a GFP-peptide fusion (yeast GPS) (PSI 1-4); higher = more stable; sorted into four equal gates, so the index is relative within each strain
Details: ubr1∆
For each of the sequences below, state its protein stability index.
Answers are plain numbers.

# annotated cases, reported protein stability index shown
# lookup: protein stability index of QIFCVFSGKGVHKLRHY [GRR1]
2.76

# lookup: protein stability index of ILYYDVLFITPDIVGHE [BRR2]
2.84

# lookup: protein stability index of TTPKKIKHKHKKVKLAV [RPS31]
1.91

Please supply protein stability index for each of the following items, keeping them in order.
1. DLLHPTAASEARKHKLK [RPS27A]
2. LRLSNFFTIDHFIQKLH [SIR2]
3. ALDTVTNVLNFIKLQKI [FAS1]
4. MTRSSVLADALNAINNA [RPS22A]
5. NRAMEYDALLSINVHSN [RET1]
6. LIARRDDESPRFVMPNQ [RRP6]

[3.07, 2.05, 2.15, 2.99, 2.68, 3.21]

Please supply protein stability index for each of the following items, keeping them in order.
1. LSFGTATSDNKTTNTTP [YJL041W/NSP1]
2. FEAQIDSVEFIFQAKRN [RPN10]
3. NSASSAPTPAAPGASVP [SWI1]
4. TLQDFHLIFSNARIYNT [SNF2]
5. YFSVTTARRNVSGDAAA [SWI3]
6. ATDEESVRLQRFYQLGV [CSN12]
7. MGLGKTLQTISFLGYLR [ISW2]
8. NKEMHTDLGKDIPFFPS [SSN2]

2.15
2.66
3.03
2.79
1.88
3.13
2.13
2.76

###

Assay: protein stability index of a GFP-peptide fusion (yeast GPS) (PSI 1-4); higher = more stable; sorted into four equal gates, so the index is relative within each strain
Conditions: san1∆
ASSAY READOUT: protein stability index
Answers are plain numbers.

# lookup: protein stability index of SIQDTSTVAKNVSFVLP [YCG1]
3.29

# lookup: protein stability index of VLESHWKQDLTKEEAIK [PUP1]
3.32

# lookup: protein stability index of SLRRIRDEMSKAELPQW [MED8]
2.33

# lookup: protein stability index of FTMMTSEPLTLKVLSEH [PCI8]
1.94

# lookup: protein stability index of GDKFSEDFRIQFKTTIK [UBP6]
2.32

Please supply protein stability index for each of the following items, keeping them in order.
1. TANAKHTSSNSREIAQP [SMB1]
2. GLCGAGTNNARLAQLLR [RPN1]

[3.19, 1.4]

Please supply protein stability index for each of the following items, keeping them in order.
1. REKLAEVYKAEKDAVSV [RPS24A]
2. QFNEFIQIMANIDQEGS [PGD1]

3.45
2.33

Please supply protein stability index for each of the following items, keeping them in order.
1. TIHRSFTICLNDRNPRL [CSN12]
2. TPMTRISELPPQIRQEI [YGL172W/NUP49]
3. VAEGKSKQDASPKPYAV [RPL8A]
4. AQPSVQSSFAGTWSAKE [FAS2]

2.72
2.65
3.04
3.35

Please supply protein stability index for each of the following items, keeping them in order.
1. NPEEVEQVAEEAAAAEE [RPS0B]
2. EPIDQNTGIVSSTTGMS [RPT3]
3. RQQAYKTAQTLDENLNS [YJL041W/NSP1]
4. IDEDKLYPSFKPIYKDT [SSN2]
5. SADYEILYEIRALYTPF [YDL116W/NUP84]

[2.95, 3.39, 3.12, 3, 2.5]

###

Experiment: protein stability index of a GFP-peptide fusion (yeast GPS) (PSI 1-4); higher = more stable; sorted into four equal gates, so the index is relative within each strain
Conditions: doa10∆
Criterion: protein stability index meeting or surpassing 2. Met: Condition met. Not met: Condition not met.

# count of solved cases: 2
protein stability index >= 2 for VRELFEMARTKKACIIF [RPT1] ?
Condition not met

protein stability index >= 2 for ELDKREDMIDQVSKKLS [SMC3] ?
Condition met

New cases:
protein stability index >= 2 for IVAKYDPPIIIFINYKQ [PRP28] ?
Condition met

protein stability index >= 2 for PNHNSPVVINLDAKNKV [RPO31] ?
Condition met

protein stability index >= 2 for HRDAYSGGSVNLYHVTE [PRE2] ?
Condition met

protein stability index >= 2 for IESQMRDLILTEYGRKY [PRP8] ?
Condition met

protein stability index >= 2 for ETTIDDLPISSTDNEAI [SMC1] ?
Condition met

###

Test: protein stability index of a GFP-peptide fusion (yeast GPS) (PSI 1-4); higher = more stable; sorted into four equal gates, so the index is relative within each strain
Settings: pdr5∆
Criterion: protein stability index meeting or surpassing 3. Met: TRUE. Not met: FALSE.

# count of solved cases: 5
protein stability index >= 3 for TPMTRISELPPQIRQEI [YGL172W/NUP49] ?
TRUE

protein stability index >= 3 for VPVANQFINLAGYKKLG [QCR7] ?
FALSE

protein stability index >= 3 for TSDSESTLYKYLKESKR [SWI3] ?
FALSE

protein stability index >= 3 for QRLVTPQRLQRKRHQRA [RPS6A] ?
TRUE

protein stability index >= 3 for NNHNDSNRLHPPDIHPN [GRR1] ?
FALSE

New cases:
protein stability index >= 3 for KDGSNPRTLIGHRATVT [RPN14] ?
TRUE

protein stability index >= 3 for EGSTIRYLAVTLQDIGF [YMR129W/POM152] ?
FALSE

###

Experiment: protein stability index of a GFP-peptide fusion (yeast GPS) (PSI 1-4); higher = more stable; sorted into four equal gates, so the index is relative within each strain
Conditions: doa10∆
ASSAY READOUT: protein stability index
Numbers only.

# annotated cases, reported protein stability index shown
# lookup: protein stability index of TYLTQEILILINDPTNK [SIN4]
1.31

# lookup: protein stability index of APGASVPATAAPGTEAG [SWI1]
2.99

# lookup: protein stability index of FGAKMSRTLILSILNEI [SIN4]
1.84

# lookup: protein stability index of TMANILYYPQKPLGTTR [RPB2]
1.77

# lookup: protein stability index of IEDRDFLVRYACEPTAE [SIR3]
2.28

# lookup: protein stability index of EINYAFSMDEEFKNMDC [SIR3]
3.09

# lookup: protein stability index of QEEEGELEHLTKKSKLE [DSN1]
3.02

# lookup: protein stability index of SIPPATIETFNEAALVV [RPB5]
3.09

Please supply protein stability index for each of the following items, keeping them in order.
1. TISKTVSSTIPRETIPF [FAS2]
2. QDSTSENVKIINYLLTL [RPN2]
3. QFQKARNNVMLLIATNL [SRB8]
4. DQFHRDTISAITHQLNN [RPC25]
5. FIKEIHKSIELISNLLF [YCS4]

[2.96, 3.42, 1.74, 1.54, 1.89]

Please supply protein stability index for each of the following items, keeping them in order.
1. LARDTPSANNSSSIKST [RRP4]
2. PLVYRHELITNIGETAG [RPB9]

1: 2.86; 2: 2.78

###

Test: protein stability index of a GFP-peptide fusion (yeast GPS) (PSI 1-4); higher = more stable; sorted into four equal gates, so the index is relative within each strain
Details: doa10∆
For each of the sequences below, state its protein stability index.
Give bare numbers.

# lookup: protein stability index of ARERKTATYNDNMSEEQ [SNF2]
3.13

# lookup: protein stability index of PEKKEMIQEVIVEEDLE [FAS2]
3.14

# lookup: protein stability index of YKEIRDVSRVAAVETLY [RPL20A]
1.95

# lookup: protein stability index of VTDNKTPEMNVTNNVEE [TAF14]
3.28

# lookup: protein stability index of MGLGKTLQTISFLGYLR [ISW2]
2.45

# lookup: protein stability index of LEPFLLMLEDTDGDSIL [BRR2]
2.71

# lookup: protein stability index of LPLFYDLLNAASIESAD [IRR1]
2.08

# lookup: protein stability index of ILSTTLDPTDDEGHVLK [SIN4]
2.58

Please supply protein stability index for each of the following items, keeping them in order.
1. NDNNLKKLESQESLVKL [RPN5]
2. ADEEEEIVDTYQEDIFV [ISW2]

1. 3.01
2. 2.8

Please supply protein stability index for each of the following items, keeping them in order.
1. AQYEVLANYLTSALSEL [QCR2]
2. EELRKHAQKRVSNASAR [SKI6]
3. ALASIQTFNFDSFENYF [RPN12]

1. 1.94
2. 3.25
3. 2.65

Please supply protein stability index for each of the following items, keeping them in order.
1. NHWRQNKGRAVYINPSG [BRR2]
2. GKRHIFDVNTLCLMTWK [CDC53]
3. ISWCSLSETNGLHKFVK [PRE10]
4. DINVELFPVAAQDSLTV [RPB8]
5. AARKAEKAKSAGTQSSK [RPL24A]
6. LQKQMGIGSLTDLMSIV [RPC34]
7. KINQERLERRINLTKVT [CSI1]
8. MSDSPLSKRQKRKSAQE [SMC4]

1: 2.97; 2: 1.25; 3: 2.38; 4: 1.33; 5: 3.13; 6: 1.91; 7: 1.91; 8: 3.46

Please supply protein stability index for each of the following items, keeping them in order.
1. YNTRKNAVTAAAANNNI [GAL11]
2. LLRYGGAFTIALAYAGT [RPN2]
3. QNIILRSTMMKFLKIAS [RPN3]
4. DRFKYRSVDRAGRKFKS [POP4]
5. VLESHWKQDLTKEEAIK [PUP1]
6. DRTMLAPMDFAIVVGWR [FAS1]
7. ANATAAESDVAKQLAAL [RPL16A]
8. SESKDSDKPSLPSAVDG [YLR335W/NUP2]

[2.19, 2.02, 2.15, 3.04, 2.71, 2.49, 3, 3.41]

Please supply protein stability index for each of the following items, keeping them in order.
1. LMEIHNILKVDSNSSSS [RGR1]
2. VTDKYTAKKTNRSAYDS [YDL088C/ASM4]
3. VYSFDPVGSYEREQCRA [PRE7]
4. PSENDVFYRMQQLRRAL [RPO31]

1. 2.58
2. 2.81
3. 3.62
4. 2.03

Please supply protein stability index for each of the following items, keeping them in order.
1. VTKDLKLRREDEIIVYA [REC8]
2. TKRSIAIVFEEIKNWIS [YMR129W/POM152]
3. GTGLQSYLEERERQVNE [RPC53]
4. LQYYILEYMNTARINNR [RRI2]
5. SKNTAVSKVQKRKVLEL [SRP72]
6. RRGYQVYREVCAACHSL [CYT1]
7. VTMGAKDKLREFIPHST [RPN6]
8. DSQIVTPGELVTDDPIW [RRP4]

1. 2.8
2. 1.41
3. 3.17
4. 2.12
5. 2.66
6. 2.22
7. 3.46
8. 2.78

Please supply protein stability index for each of the following items, keeping them in order.
1. KPQRTNTLRMKHGTYDK [RPB2]
2. EDTNTKPLFDFGKTGDQ [YOR098C/NUP1]

[2.74, 1.86]

Please supply protein stability index for each of the following items, keeping them in order.
1. LAPSKHQPITSEQKMKE [SIR4]
2. SKIIVFPRNGKAPEAEQ [RPL13A]
3. GHVKPVRCVNCSKSIPK [RPS26A]
4. PSYYYYVDPETTYTYQQ [ROX3]
5. CNSIINKLGALKTNFET [RPB11]
6. AKKTSTSTDGKKRSKAR [HTB1]
7. SHHLKADTIDHDELIDS [YGL172W/NUP49]
8. IDAALDKQYRTAVATLL [SMC3]

2.31
3.19
2.8
2.93
2.57
3.2
3.03
1.87
